Below: a set of entries, each annotated with reported inhibition at 10 µM.
Target: Human 5-lipoxygenase (Homo sapiens, UniProt P09917)
Construct: purchased Cayman 60402; host or cells: insect cells
Sequence (P09917 whole entry): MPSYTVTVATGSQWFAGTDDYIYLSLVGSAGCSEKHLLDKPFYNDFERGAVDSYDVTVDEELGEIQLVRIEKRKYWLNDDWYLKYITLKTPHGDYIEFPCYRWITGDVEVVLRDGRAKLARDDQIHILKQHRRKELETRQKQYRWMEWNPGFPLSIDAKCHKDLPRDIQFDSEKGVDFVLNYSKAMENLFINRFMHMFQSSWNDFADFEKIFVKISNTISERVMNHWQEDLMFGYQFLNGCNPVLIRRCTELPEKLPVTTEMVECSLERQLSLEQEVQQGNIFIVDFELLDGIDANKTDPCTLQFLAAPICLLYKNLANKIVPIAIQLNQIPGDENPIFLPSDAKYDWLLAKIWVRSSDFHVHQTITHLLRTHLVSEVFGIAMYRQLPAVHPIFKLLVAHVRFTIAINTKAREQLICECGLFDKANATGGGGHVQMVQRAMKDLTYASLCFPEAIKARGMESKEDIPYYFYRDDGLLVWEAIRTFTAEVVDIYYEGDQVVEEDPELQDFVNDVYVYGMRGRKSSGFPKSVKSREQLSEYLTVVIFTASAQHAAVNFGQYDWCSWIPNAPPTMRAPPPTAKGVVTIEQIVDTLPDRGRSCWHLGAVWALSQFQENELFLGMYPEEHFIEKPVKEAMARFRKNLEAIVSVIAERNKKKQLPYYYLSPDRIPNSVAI
Experiment: Activity of compounds against 5-LO enzyme (LTB4 measurement and/or fluorescence method)
Type: biochemical
Details: 5-LO, single concentration of 10 uM in duplicate

Ask | Please give the measured inhibition at 10 µM for this molecule: CCc1nc2ccc(Cl)cn2c1C(=O)NCc1ccc(C2CCN(C(=O)c3ccc(F)cc3)CC2)cc1 [compound 326]
Reply | < 40%

Ask | Follow-up entry: CCc1nc2ccc(Cl)cn2c1C(=O)NCc1ccc(N2CCC(c3ccc(OC(F)(F)F)cc3)CC2)cc1 [compound 267]
Reply | < 40%

Ask | Try the molecule CCc1nc2ccc(Cl)cn2c1C(=O)NCc1ccc(-c2ccc(C)cc2)cc1 [compound 77]
Reply | < 40%

Ask | Now this one: CCc1nc2cc(Cl)ccn2c1C(=O)NCc1ccc(N2CCC(C(N)=O)CC2)cc1 [compound 292]
Reply | < 40%

Ask | Please do the same for CCc1nc2ccc(Cl)cn2c1C(=O)NCc1ccc(N2CCC(c3ccc(F)cc3)CC2)cc1 [compound 249] as well.
Reply | 40 to 69%

Ask | And the next one, CCc1nc2cc(Cl)ccn2c1C(=O)NCc1ccc(Nc2ccc(OC(F)(F)F)cc2)cc1 [compound 175] ?
Reply | > 69%

Ask | Now consider CCc1nc2ccc(Cl)cn2c1C(=O)NCc1ccc(N2CCC(O)(c3ccc(F)cc3)CC2)cc1 [compound 306] .
Reply | 40 to 69%

Ask | Here is the next molecule: CCc1nc2ccc(Cl)cn2c1C(=O)NCc1ccn(-c2ccc(C(F)(F)F)cc2)n1 [compound 151]
Reply | < 40%

Ask | Then CCc1nc2ccc(F)cn2c1C(=O)NCc1ccc(OCc2ccc(OC(F)(F)F)cc2)cc1 [compound 205] ?
Reply | 40 to 69%

Ask | Cc1nc2ccccn2c1C(=O)Nc1ccncc1 [compound 11] ?
Reply | < 40%

More entries:
Ask | Which value of inhibition at 10 µM has been reported for CCc1nc2ccc(Cl)cn2c1C(=O)NCCc1ccc(OC)cc1 [compound 136] in the records?
Reply | < 40%

* * *

Molecular target: Human 5-lipoxygenase (Homo sapiens, UniProt P09917)
Construct: purchased Cayman 60402; host or cells: insect cells
Test: Activity of compounds against 5-LO enzyme (LTB4 measurement and/or fluorescence method)
Format: biochemical
Settings: 5-LO, single concentration of 10 uM in duplicate
Listed here are compounds together with their documented inhibition at 10 µM.

Ask | Given the compound CCc1nc2cc(-c3ccncc3)ccn2c1C(=O)NCc1ccc(N2CCOCC2)cc1 [compound 255] , what is its reported inhibition at 10 µM?
Reply | < 40%

Ask | Likewise for CCc1nc2cc(Cl)ccn2c1C(=O)NCc1ccc(-c2ccccc2C)cc1 [compound 85] ?
Reply | > 69%

Ask | Then what about the compound CCc1nc2cc(N3CCN(c4ccccc4)CC3)ccn2c1C(=O)NCc1ccc(C(F)(F)F)cc1 [compound 246] ?
Reply | < 40%

Ask | Next up: CCc1nc2ccc(Cl)cn2c1C(=O)NCC1CCN(Cc2ccc(OC(F)(F)F)cc2)CC1 [compound 138]
Reply | 40 to 69%

From here, focus on the item given below.
Ask | Value lookup for inhibition at 10 µM; key = CCc1nc2cc(Br)ccn2c1C(=O)NCc1ccc(N2CCN(c3ccc(F)cc3)CC2)cc1 [compound 304]
Reply | > 69%
